study-system: T1, recombinant human activated Factor VII (FVIIa) (human, UniProt P08709 61-212; P08709 213-466, ten glutamate residues of the Gla domain may be gamma-carboxylated)
T1 construct: chains tethered by a disulfide bond; also called Factor VIIa; rFVIIa
T1 sequence 1: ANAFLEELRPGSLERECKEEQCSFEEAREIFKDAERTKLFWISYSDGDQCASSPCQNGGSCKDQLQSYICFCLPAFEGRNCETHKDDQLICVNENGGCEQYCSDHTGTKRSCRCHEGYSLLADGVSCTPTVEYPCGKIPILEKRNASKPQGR
T1 sequence 2: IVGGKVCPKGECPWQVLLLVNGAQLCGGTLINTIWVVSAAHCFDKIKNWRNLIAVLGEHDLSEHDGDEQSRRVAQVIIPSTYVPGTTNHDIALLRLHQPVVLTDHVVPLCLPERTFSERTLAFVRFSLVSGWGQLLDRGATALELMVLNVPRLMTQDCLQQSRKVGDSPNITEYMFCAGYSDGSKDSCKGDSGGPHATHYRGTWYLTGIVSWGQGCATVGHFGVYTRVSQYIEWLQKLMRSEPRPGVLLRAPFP
test-details: BLI (Fortebio)
Documented Kd across a set of binders

binder	Kd (nM)
VH SEQ ID NO 578 / VL SEQ ID NO 382 (antibody, IgG4, V domains shown, humanized 11F2; IgG4 S228P/kappa) VH: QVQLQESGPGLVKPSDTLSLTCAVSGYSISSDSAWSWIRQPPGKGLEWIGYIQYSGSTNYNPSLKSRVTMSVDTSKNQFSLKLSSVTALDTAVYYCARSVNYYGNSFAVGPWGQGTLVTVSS VL: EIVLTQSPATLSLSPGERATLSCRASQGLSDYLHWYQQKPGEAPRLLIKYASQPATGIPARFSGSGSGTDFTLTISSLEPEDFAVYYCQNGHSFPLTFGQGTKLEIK	30
VH SEQ ID NO 546 / VL SEQ ID NO 358 (antibody, IgG4, V domains shown, humanized 11F2; IgG4 S228P/kappa) VH: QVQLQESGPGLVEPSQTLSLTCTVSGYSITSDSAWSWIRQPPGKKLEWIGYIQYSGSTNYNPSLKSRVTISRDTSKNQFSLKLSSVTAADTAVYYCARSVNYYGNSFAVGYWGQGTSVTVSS VL: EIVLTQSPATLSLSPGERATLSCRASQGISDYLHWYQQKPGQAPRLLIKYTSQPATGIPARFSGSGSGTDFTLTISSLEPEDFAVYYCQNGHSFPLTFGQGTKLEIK	0.99
VH SEQ ID NO 618 / VL SEQ ID NO 414 (antibody, IgG4, V domains shown, humanized 11F2; IgG4 S228P/kappa) VH: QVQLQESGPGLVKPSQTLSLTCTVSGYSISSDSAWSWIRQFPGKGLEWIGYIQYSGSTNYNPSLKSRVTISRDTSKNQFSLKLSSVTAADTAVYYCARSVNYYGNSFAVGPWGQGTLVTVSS VL: EIVLTQSPATLSLSPGERATLSCRASQGVSDYLAWYQQKPGQAPRLLIKYASQPATGIPARFSGSGSGTDFTLTISSLEPEDFAVYYCQNGHSFPLTFGQGTKLEIK	24
